Substrate: O=P(O)(O)OC[C@H](O)CO
Test: coupled MDCC-PBP Pi-biosensor fluorescence assay in lipid cubic phase (monoolein)
Format: biochemical, Aquifex aeolicus
Settings: co-substrate 3.3-5.2 mol% 16:0-P, pH 8.0, 30 °C, no technical replicates
Below, each entry is listed with its recorded Km.
Reply numerically in mM, unit not repeated.

Input line: Form field: reported Km of aaPlsY (Aquifex aeolicus VF5; H177A) (protein, full length, 192 residues, monomer, codon-optimised gene, E. coli BL21(DE3); assays: C-terminal His8 tag (p3EC); crystals: C-terminal His-eGFP removed by 3C protease; DDM-purified, reconstituted in lipid cubic phase) MKALFLVIFAYLLGSITFGEVIAKLKGVDLRNVGSGNVGATNVTRALGKKYGVLVFFLDFLKGFIPALIAVKSFGIDSWVLTFTGLASVLGHMYPVFFGFKGGKGVATALGVVFAVSPSVALFSFLVWLGIFLWKRYVSLASITATISAFLFLFVAGYPVNVLFMAIVIGALIIYRARENINRLLTGREHRF
Output line: 9.24

Next up:
Input line: Form field: reported Km of aaPlsY (Aquifex aeolicus VF5; E189A) (protein, full length, 192 residues, monomer, codon-optimised gene, E. coli BL21(DE3); assays: C-terminal His8 tag (p3EC); crystals: C-terminal His-eGFP removed by 3C protease; DDM-purified, reconstituted in lipid cubic phase) MKALFLVIFAYLLGSITFGEVIAKLKGVDLRNVGSGNVGATNVTRALGKKYGVLVFFLDFLKGFIPALIAVKSFGIDSWVLTFTGLASVLGHMYPVFFGFKGGKGVATALGVVFAVSPSVALFSFLVWLGIFLWKRYVSLASITATISAFLFLFVAGYPVNVLFMAIVIGALIIYRHRENINRLLTGRAHRF
Output line: 5.79
